Data origin, for the record: paper PMC10934261

Test system: human breast MCF-7 cancer cell line
protocol: In vitro cytotoxic screening (MTT assay), MCF-7
Assay type: cell-based
testSettings: 12.5 µM; average ± standard deviation
Field: label. Allowed values: Fulfilled (Percentage cytotoxicity on MCF-7 < 8%) or Not fulfilled (Percentage cytotoxicity on MCF-7 >= 8%).

compound: COc1ccc(-c2nn3c(=O)c4c5c(sc4nc3[nH]2)CCC5)cc1 [Compound 10d]
categoryLabel: Not fulfilled
//
compound: O=c1c2c3c(sc2nc2[nH]c(-c4c5ccccc5cc5ccccc45)nn12)CCC3 [Compound 10e]
categoryLabel: Not fulfilled
//
compound: CC(=O)OC[C@H]1O[C@@H](n2cnn3c(=O)c4c5c(sc4nc23)CCC5)[C@H](OC(C)=O)[C@@H](OC(C)=O)[C@@H]1OC(C)=O [Compound 14]
categoryLabel: Fulfilled
//
compound: CC(=O)OC[C@@H](OC(C)=O)[C@H](OC(C)=O)[C@H](OC(C)=O)[C@@H](OC(C)=O)c1nc2nc3sc4c(c3c(=O)n2[nH]1)CCC4 [Compound 12b]
categoryLabel: Fulfilled
//
compound: O=c1c2c3c(sc2nc2[nH]cnn12)CCC3 [Compound 4]
categoryLabel: Not fulfilled
//
compound: O=c1c2c3c(sc2nc2nc([C@@H](O)[C@H](O)[C@H](O)CO)[nH]n12)CCC3 [Compound 11d]
categoryLabel: Fulfilled
//
compound: O=c1c2c3c(sc2nc2[nH]c(=S)[nH]n12)CCC3 [Compound 9]
categoryLabel: Fulfilled
//
compound: CC(=O)OC[C@@H](OC(C)=O)[C@@H](OC(C)=O)[C@H](OC(C)=O)c1nc2nc3sc4c(c3c(=O)n2[nH]1)CCC4 [Compound 12d]
categoryLabel: Fulfilled
//
compound: COc1ccc(-c2nn3c(=O)c4c5c(sc4nc3n2[C@@H]2O[C@H](COC(C)=O)[C@@H](OC(C)=O)[C@H](OC(C)=O)[C@H]2OC(C)=O)CCC5)cc1 [Compound 16]
categoryLabel: Fulfilled
//
compound: CCOC(=O)Cc1nn2c(=O)c3c4c(sc3nc2[nH]1)CCC4 [Compound 6]
categoryLabel: Fulfilled
//
compound: O=c1c2c3c(sc2nc2[nH]c(-c4ccc(Cl)cc4)nn12)CCC3 [Compound 10a]
categoryLabel: Not fulfilled
//
compound: CC(=O)C/C(C)=N/n1c(N)nc2sc3c(c2c1=O)CCC3 [Compound 8]
categoryLabel: Not fulfilled
//
compound: O=c1c2c3c(sc2nc2nc([C@@H](O)[C@@H](O)[C@H](O)[C@H](O)CO)[nH]n12)CCC3 [Compound 11c]
categoryLabel: Fulfilled
//
compound: O=c1c2c3c(sc2nc2nc([C@H](O)[C@@H](O)[C@H](O)[C@H](O)CO)[nH]n12)CCC3 [Compound 11a]
categoryLabel: Fulfilled
